- TEST SYSTEM: SETDB1 peptide trimethylated at K1178 (human (by the printed UniProt entry), UniProt Q15047, trimethyl-lysine at 1178)
- TEST DESCRIPTION: ITC
ENDPOINT LABEL: Kd

Specify Kd for MPP8 chromodomain (CD, residues 55-116) (domain or fragment) GEDVFEVEKILDMKTEGGKVLYKVRWKGYTSDDDTWEPEIHLEDCKEVLLEFRKKIAENKAK and stop.
> 80 µM
